Origin of values: ChEMBL document CHEMBL6120963

For each entry below, report its DC50 value.
# TARGET_OR_TEST_SYSTEM: Protein cereblon/NAD-dependent protein deacylase sirtuin-6 (Homo sapiens, UniProt Q8N6T7+Q96SW2)
# Sequence (Q8N6T7 whole entry): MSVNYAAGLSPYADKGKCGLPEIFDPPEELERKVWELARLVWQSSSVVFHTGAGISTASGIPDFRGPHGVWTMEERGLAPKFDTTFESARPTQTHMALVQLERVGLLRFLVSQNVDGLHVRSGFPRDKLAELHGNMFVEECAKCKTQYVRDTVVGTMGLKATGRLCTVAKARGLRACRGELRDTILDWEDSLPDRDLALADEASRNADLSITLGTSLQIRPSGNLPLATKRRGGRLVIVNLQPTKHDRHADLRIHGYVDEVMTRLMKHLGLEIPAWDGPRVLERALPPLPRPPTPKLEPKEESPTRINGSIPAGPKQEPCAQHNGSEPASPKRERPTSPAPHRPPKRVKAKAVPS
# Sequence (Q96SW2 whole entry): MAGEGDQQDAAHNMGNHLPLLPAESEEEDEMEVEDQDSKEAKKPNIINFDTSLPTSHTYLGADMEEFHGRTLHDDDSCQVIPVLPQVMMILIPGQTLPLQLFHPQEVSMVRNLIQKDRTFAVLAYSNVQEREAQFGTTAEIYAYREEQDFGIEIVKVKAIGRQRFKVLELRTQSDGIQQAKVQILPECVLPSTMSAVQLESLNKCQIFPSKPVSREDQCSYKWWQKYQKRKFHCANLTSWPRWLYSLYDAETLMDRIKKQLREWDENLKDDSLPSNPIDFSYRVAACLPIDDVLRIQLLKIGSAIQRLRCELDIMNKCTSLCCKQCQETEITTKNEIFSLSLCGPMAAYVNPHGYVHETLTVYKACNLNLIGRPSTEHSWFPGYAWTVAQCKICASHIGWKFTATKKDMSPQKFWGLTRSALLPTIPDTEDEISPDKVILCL
# MEASUREMENT_NOTES: PROTAC activity at CRBN/SIRT6 in human SK-HEP1 cells assessed as induction of SIRT6 degradation incubated for 36 hrs by Western blot analysis
# Assay type: cell-based
Give bare numbers, in nM.

>>> df
                                   molecule  numeric_result
0  Nc1cc(N2CCN(CC3CCN(c4ccc5c(c4)C(=O)N(C4CCC(=O)NC4=O)C5=O)CC3)CC2)ccc1[N+](=O)[O-] (centres undefined)             106
1  Nc1cc(N2CCN(CC3CCN(c4ccc5c(c4)C(=O)N(C4CCC(=O)NC4=O)C5=O)C3)CC2)ccc1[N+](=O)[O-] (centres undefined)            91.5

Please report DC50 for every entry that follows.
1. Nc1cc(N2CCN(CCCC3CCN(c4cc5c(cc4F)C(=O)N(C4CCC(=O)NC4=O)C5=O)CC3)CC2)ccc1[N+](=O)[O-] (centres undefined)
2. Nc1cc(N2CCN(CC3CCN(c4cc5c(cc4F)C(=O)N(C4CCC(=O)NC4=O)C5=O)CC3)CC2)ccc1[N+](=O)[O-] (centres undefined)

[50.4, 45.3]
